Record form. Attribute: %Inh. Fill in for each entry.
# Tested on: BMPR1B
# STATED_CONDITIONS: concentration: 1 μM, replicates: in singlicate; n = 1;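 note: KINOMEscan kinase panel screen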
Just the number in %, nothing appended.

Notebook: pull reported %Inh for BMPR1B, entry Cl.Oc1ccc(-c2nc(-c3ccccc3)[nH]c2-c2ccncc2)cc1
0

Now consider Nc1ncnc2[nH]c(-c3ccccc3)nc12 and answer again.
0

Now consider CS(=O)(=O)c1ccc(-c2nc3n(c2-c2ccncc2)CCC3)cc1 and answer again.
0

====

# System: CDKL3
# STATED_CONDITIONS: concentration: 1 μM, replicates: in singlicate; n = 1
READOUT_TYPE: %Inh (%)
Just the number in %, nothing appended.

Notebook: pull reported %Inh for CDKL3, entry Fc1cc(Cl)ccc1Nc1ccnc2cc(I)ccc12
0

Now consider Cc1cc(-c2ccc3c(c2)CC[C@@H](N[C@@H](C)c2ccccc2)C3)cnc1N.Cl and answer again.
0

Now consider COc1cccc(-c2cc(-c3c[nH]nc3-c3ccccn3)ccn2)c1 and answer again.
23

Now consider Cl.O=C(Nc1cccc(-c2nn3ncccc3c2-c2ccnc(Nc3cccnc3)n2)c1)c1c(F)cccc1F and answer again.
0

Now consider Cc1cccc(-c2nc(-c3ccc(S(C)(=O)=O)cc3)sc2-c2ccnc(NCCc3ccccc3)c2)c1 and answer again.
10

Now consider O=C(Nc1n[nH]c2nc(-c3nccs3)c(Br)cc12)C1CCCC1 and answer again.
0

====

# Test system: DCAMKL1
# Construct: gene DCLK1
# STATED_CONDITIONS: concentration: 1 μM, replicates: in singlicate; n = 1
Record form. Attribute: %Inh. Fill in for each entry.
Just the number in %, nothing appended.

# input compound: COc1cccc(-c2cc(-c3c[nH]nc3-c3ccccn3)ccn2)c1 [GW680338] ; wanted: its %Inh
13

Now consider COC(=O)c1c(-c2ccccc2)c2cc(C(=O)O)ccc2c(=O)n1Cc1ccccc1 and answer again.
5

Now consider Cl.NC(=O)c1cccc(Nc2nccc(Nc3ccc(Oc4cccc(Cl)c4)c(Cl)c3)n2)c1 [GW659008] and answer again.
0

Now consider Cc1c(Cn2ccn3c(=O)cc(N4CCOCC4)nc23)cccc1C(F)(F)F [GSK2289044] and answer again.
3

====

Record form. Attribute: %Inh. Fill in for each entry.
# Tested on: CLK2
# STATED_CONDITIONS: concentration: 1 μM, replicates: in singlicate; n = 1
Just the number in %, nothing appended.

# input compound: CC1=C(C(=O)Nc2cc3cn[nH]c3cc2F)C(c2ccc(C(F)(F)F)cc2)CC(=O)N1 (centres unmarked) ; wanted: its %Inh
0

Now consider Clc1cc(Cl)cc(Nc2ccnc(Nc3cc(Cl)cc(Cl)c3)n2)c1 and answer again.
36

Now consider COc1cccc(NC(=O)NC2CCN(c3ccnc(Nc4ccc(F)cc4)n3)C2)c1 (centres unmarked) and answer again.
1

Now consider Cl.Oc1ccc(-c2nc(-c3ccccc3)[nH]c2-c2ccncc2)cc1 and answer again.
6

Now consider Fc1cc(Cl)ccc1Nc1ccnc2cc(I)ccc12 and answer again.
0

Now consider Cc1cccc(-c2nc(Nc3ccncc3)c3ccccc3n2)n1 and answer again.
8

Now consider O=c1cc(N2CCOCC2)nc2n(Cc3cccc(Cl)c3Cl)ccn12 and answer again.
14

Now consider Cc1c(O)cccc1Nc1ccnc2ccc(C(F)(F)F)cc12.Cl and answer again.
14

Now consider Cc1ccc(-c2cc(-c3c[nH]nc3-c3ccccn3)ccn2)cc1 and answer again.
9

Now consider COc1ccc(Nc2nccc(-c3cccc(NC(=O)c4cc5cc(F)ccc5[nH]4)c3)n2)cc1 and answer again.
0

Now consider Cl.O=C(Nc1cccc(-c2nn3ncccc3c2-c2ccnc(Nc3cccnc3)n2)c1)c1c(F)cccc1F and answer again.
3

Now consider COc1ccc2nc(-c3cccc(C)n3)nc(Nc3ccncc3)c2c1 and answer again.
0

Now consider CN1C(=O)C(Nc2ccc(Cl)c(C(=O)O)c2)=C(c2ccc(Cl)cc2)C1=O and answer again.
7

Now consider Cn1ccc2ncnc(Oc3ccc(Nc4nc5ccccc5[nH]4)cc3)c21 and answer again.
12

Now consider C[C@@H]1CCCCN1c1cc(-c2ccc3c(N)n[nH]c3c2)nc(N)n1 and answer again.
0

Now consider COc1cc2ncn(-c3cc(OCC4CCCO4)c(C(N)=O)s3)c2cc1OC (centres unmarked) and answer again.
0

Now consider CC(C)(C)c1ccc(C(=O)Nc2cn3cc(-c4cccnc4)ccc3n2)cc1 and answer again.
41

Now consider CCCc1ccc(S(=O)(=O)NC2CCN(c3ccnc(Nc4ccc(F)cc4)n3)C2)cc1 (centres unmarked) and answer again.
0

Now consider Cc1cc(-c2ccc3c(c2)CC[C@@H](N[C@@H](C)c2ccccc2)C3)cnc1N.Cl and answer again.
0

Now consider Cc1c(Cn2ccn3c(=O)cc(N4CCOCC4)nc23)cccc1C(F)(F)F and answer again.
54

Now consider O=C(Nc1n[nH]c2cc(-c3cccc(F)c3F)ccc12)C1CC1 and answer again.
13

Now consider COC(=O)c1c(-c2ccccc2)c2cc(OC)ccc2c(=O)n1Cc1ccccc1 and answer again.
4

Now consider O=C(Nc1ccccc1)Nc1cccc(Oc2ccc3nccn3n2)c1 and answer again.
0
